- TARGET: Heat shock protein HSP90 (Homo sapiens) (UniProt P07900+P08238)
- RUN DESCRIPTION: Inhibition of Hsp90 in human MCF7 cells assessed as induction of Hsp70 expression at 20 to 40 uM after 24 hrs by Western blotting
- Type: cell-based
Active and inactive are the calls of the source. The rule behind the calls is not given here.
Possible outcomes: active, inactive

- SMILES STRUCTURE: "CCOc1cc(/C=C2\\C(=O)NC(=O)N(Cc3ccccc3)C2=O)ccc1O"
  GROUP: "inactive"
- SMILES STRUCTURE: "COc1ccc(-c2cc(-c3nnc(S)n3-c3cccc4ccccc34)[nH]n2)cc1"
  GROUP: "inactive"
- SMILES STRUCTURE: "O=C(CSc1nnc(-c2cccnc2)n1-c1ccccc1)NCc1ccccc1"
  GROUP: "inactive"
- SMILES STRUCTURE: "O=C1NC(=O)N(c2ccccc2F)C(=O)/C1=C\\c1cn(Cc2ccccc2)c2ccccc12"
  GROUP: "active"
- SMILES STRUCTURE: "Cc1cccc(N2C(=O)NC(=O)/C(=C/c3ccccc3OCC(=O)O)C2=O)c1"
  GROUP: "inactive"
- SMILES STRUCTURE: "O=C(CSc1nnc(-c2ccc3c(c2)OCO3)n1-c1ccccc1)c1ccccc1"
  GROUP: "inactive"
